# assayed_system: UniProt:P18089
# Sequence (P18089 whole entry): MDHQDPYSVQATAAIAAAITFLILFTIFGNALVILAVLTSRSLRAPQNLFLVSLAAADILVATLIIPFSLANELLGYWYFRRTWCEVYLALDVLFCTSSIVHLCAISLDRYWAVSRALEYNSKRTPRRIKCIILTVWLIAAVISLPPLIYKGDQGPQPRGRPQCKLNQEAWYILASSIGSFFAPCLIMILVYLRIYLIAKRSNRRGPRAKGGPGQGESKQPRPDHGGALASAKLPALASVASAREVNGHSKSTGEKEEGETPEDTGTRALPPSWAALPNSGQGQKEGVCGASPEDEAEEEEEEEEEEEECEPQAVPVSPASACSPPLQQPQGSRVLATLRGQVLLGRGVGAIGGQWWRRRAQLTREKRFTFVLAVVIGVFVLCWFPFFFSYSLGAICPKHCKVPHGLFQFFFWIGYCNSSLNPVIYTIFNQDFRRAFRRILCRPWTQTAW
measured_parameter: Ki (nM)
One number for each entry, in nM.

Task: # returns recorded Ki (system: UniProt:P18089) for NCCCCCCn1cc(CCCCN2CCC(c3ccc(-c4cc(C(=O)O)cc5cc(-c6ccc(C(F)(F)F)cc6)ccc45)cc3)CC2)nn1
Result: 984
